# Test system: Plasmodium falciparum
# protocol_notes: Antiplasmodial activity against chloroquine-sensitive Plasmodium falciparum 3D7 infected in human erythrocytes assessed as inhibition of [3H]hypoxanthine incorporation after 48 hrs by liquid scintillation counting
# Assay type: functional, organism-based
# run_conditions: Plasmodium falciparum, 3D7; read-out: IC50
Would you mind telling me the reported pIC50 of each entry?
Give bare numbers, as −log10 of the molar value.

Some compounds with known pIC50 results, for comparison:
• C[C@H]1[C@@H](CCOC(=O)NCCCCC[C@@H]2SC[C@@H]3NC(=O)N[C@@H]32)O[C@@H]2O[C@]3(C)CC[C@H]4[C@H](C)CC[C@@H]1[C@@]24OO3 = 8.80
• C[C@H]1[C@@H](CC(=O)NCc2cccc(CNC(=O)CCSSCCNC(=O)CCCC[C@@H]3SC[C@@H]4NC(=O)N[C@@H]43)c2)O[C@@H]2O[C@]3(C)CC[C@H]4[C@H](C)CC[C@@H]1[C@@]24OO3 = 7.04
• O=C(NCCCC[C@H]1SC[C@H]2NC(=O)N[C@H]21)NCc1cccc(CNC(=O)C23CC4CC(C2)[C@]2(OO[C@]5(CCCCC5)O2)C(C4)C3)c1 = 8.62

Lab note: each compound below needs its pIC50 filled in.
1. OCC12CC3CC(C1)[C@]1(OO[C@]4(CCCCC4)O1)C(C3)C2
2. CC(C)(C)OC(=O)NCc1cccc(CNC(=O)C23CC4CC(C2)[C@]2(OO[C@]5(CCCCC5)O2)C(C4)C3)c1
3. O=C(NCc1cccc(CNC(=O)C23CC4CC(C2)[C@]2(OO[C@]5(CCCCC5)O2)C(C4)C3)c1)OCC1c2ccccc2-c2ccccc21

1: 8.08; 2: 8.29; 3: 7.57

Lab note: each compound below needs its pIC50 filled in.
1. COC(=O)C12CC3CC(C1)[C@]1(OO[C@]4(CCCCC4)O1)C(C3)C2
2. O=C(O)C12CC3CC(C1)[C@]1(OO[C@]4(CCCCC4)O1)C(C3)C2

1: 8.24; 2: 6.82
